Origin of the recorded values: patent US7935785B2

Experimental target: MMP-2 (Homo sapiens, UniProt P08253)
Construct: the cDNA encoding the catalytic domain of MMP-2 was generated by PCR; made in house; host or cells: HEK 293 cells
Sequence (P08253 110-465 limits assumed): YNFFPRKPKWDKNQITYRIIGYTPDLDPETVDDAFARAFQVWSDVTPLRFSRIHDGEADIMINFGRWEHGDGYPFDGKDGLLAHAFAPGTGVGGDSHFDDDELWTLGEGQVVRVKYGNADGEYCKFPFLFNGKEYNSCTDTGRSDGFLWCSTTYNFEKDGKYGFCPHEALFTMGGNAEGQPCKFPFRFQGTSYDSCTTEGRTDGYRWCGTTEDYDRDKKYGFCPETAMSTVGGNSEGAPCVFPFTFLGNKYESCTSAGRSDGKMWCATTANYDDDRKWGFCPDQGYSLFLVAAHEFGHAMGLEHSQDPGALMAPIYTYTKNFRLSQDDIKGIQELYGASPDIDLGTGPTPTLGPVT
Measurement notes: Peptide substrate hydrolysis kinetics, fluorescamine incorporation assay (kcat/Km, selectivity ratio)
Assay type: biochemical
Condition notes: MMP-2 substrates; MMP-9
Measured quantity: selectivity ratio: kcat/Km for MMP-2 divided by kcat/Km for MMP-9
One number for each entry.

Worked examples, 5 substances total:
Substance | Numeric value
A13: MMP-2 selective substrate peptide from phage clone A13, sequence G-A-V-S-W-L-L-T (GAVSWLLT) | 15
A3: MMP-2 selective substrate peptide from phage clone A3, sequence A-K-P-R-A-L-T-A (AKPRALTA) | 2
B49: MMP-2 selective substrate peptide from phage clone B49, sequence L-R-L-A-A-I-T-A (LRLAAITA) | 14
B37: MMP-2 selective substrate peptide from phage clone B37, sequence A-N-I-S-D-L-T-A (ANISDLTA) | 71
C9: MMP-2 selective substrate peptide from phage clone C9, sequence R-S-L-S-R-L-T-A (RSLSRLTA) | 198

Please give selectivity ratio: kcat/Km for MMP-2 divided by kcat/Km for MMP-9, item by item, for the list that follows.
1. A34: MMP-2 selective substrate peptide from phage clone A34, sequence N-R-Y-S-S-L-T-A (NRYSSLTA)
2. A21: MMP-2 selective substrate peptide from phage clone A21, sequence H-M-H-K-A-L-T-A (HMHKALTA)
3. B74: MMP-2 selective substrate peptide from phage clone B74, sequence E-S-L-A-Y-Y-T-A (ESLAYYTA)

1: 40; 2: 8; 3: 108
